Numbers sourced from paper PMC3702004.

Tested on: Cyp1a1 mRNA in liver
Test: Cyp1a1 gene expression in liver (real-time PCR)
Format: in vivo, female C57BL/6 mice
Conditions: relative to TCDD; dose metric Syst adipose (ng/g lipid)
OBSERVABLE: REP Liver Cyp1a1 mRNA
// no unit string in output, number only

Q: For the molecule Clc1ccc(-c2cc(Cl)c(Cl)c(Cl)c2)cc1Cl , what REP Liver Cyp1a1 mRNA is on record?
Ans: 0.008

Q: Same thing, different molecule: Clc1ccc(-c2cc(Cl)c(Cl)c(Cl)c2Cl)cc1Cl
Ans: 0.00001

Q: Same thing, different molecule: Clc1cc2c(cc1Cl)Oc1c(cc(Cl)c(Cl)c1Cl)O2
Ans: 1

Q: Same thing, different molecule: Clc1cc2c(cc1Cl)Oc1cc(Cl)c(Cl)cc1O2 [TCDD, 2,3,7,8-tetrachlorodibenzodioxin, reference compound]
Ans: 1
